In this section, each of the substances is paired with its reported Binding intensity (normalized).
Biological target: p53β (p53-aggregating sequence ILTIITL) (Homo sapiens, UniProt P04637)
Experiment: In vitro peptide-binding assay (PepSpot membrane, biotinylated p53β peptide, streptavidin-HRP)
Details: immobilized peptide, p53β self-interaction = 100,00

substance: TLTISTL (listed as Homo sapiens) [peptide from KV117_HUMAN]
Binding intensity (normalized): 10,18
//
substance: ILRQITL (listed as Homo sapiens) [peptide from CD2A1_HUMAN]
Binding intensity (normalized): 14,74
//
substance: ILTEIHL (listed as Homo sapiens) [peptide from RFC5_HUMAN]
Binding intensity (normalized): 12,86
//
substance: IVTIITA (listed as Homo sapiens)
Binding intensity (normalized): 17,21
//
substance: ILTFKTL (listed as Homo sapiens) [peptide from DYH3_HUMAN]
Binding intensity (normalized): 6,20
//
substance: LLTIINL (listed as Homo sapiens)
Binding intensity (normalized): 1,55
//
substance: ILTIKEL (listed as Homo sapiens) [peptide from ZN830_HUMAN]
Binding intensity (normalized): 14,09
//
substance: ILTKSTL (listed as Homo sapiens) [peptide from CND2_HUMAN]
Binding intensity (normalized): 17,86
//
substance: ILTDVTL (listed as Homo sapiens)
Binding intensity (normalized): 5,88
//
substance: ILQIITE (listed as Homo sapiens) [peptide from DHX29_HUMAN]
Binding intensity (normalized): 15,64
//
substance: KLTIITS (listed as Homo sapiens) [peptide from CM031_HUMAN]
Binding intensity (normalized): 17,88
//
substance: ILQIISL (listed as Homo sapiens) [peptide from PK3C3_HUMAN]
Binding intensity (normalized): 26,33
//
substance: ILCDITL (listed as Homo sapiens) [peptide from KLH32_HUMAN]
Binding intensity (normalized): 7,89
//
substance: GLTIPTL (listed as Homo sapiens)
Binding intensity (normalized): 10,86
//
substance: ILKNITL (listed as Homo sapiens) [peptide from BPA1_HUMAN]
Binding intensity (normalized): 12,10
//
substance: ILTICTK (listed as Homo sapiens)
Binding intensity (normalized): 6,48
//
substance: LLTIILL (listed as Homo sapiens)
Binding intensity (normalized): 3,95
//
substance: ILTILTE (listed as Homo sapiens) [peptide from CASP8_HUMAN]
Binding intensity (normalized): 11,43
//
substance: ILVIITR (listed as Homo sapiens) [peptide from LONF2_HUMAN]
Binding intensity (normalized): 6,81
//
substance: VLTISTL (listed as Homo sapiens)
Binding intensity (normalized): 6,72
//
substance: MLTEITL (listed as Homo sapiens)
Binding intensity (normalized): 3,03
//
substance: IYTGITL (listed as Homo sapiens)
Binding intensity (normalized): 32,12
//
substance: ILTIITL (listed as Homo sapiens)
Binding intensity (normalized): 100,00
//
substance: ILLIITD (listed as Homo sapiens) [peptide from CPNE2_HUMAN]
Binding intensity (normalized): 111,13
//
substance: ILTKISL (listed as Homo sapiens) [peptide from HEAT1_HUMAN]
Binding intensity (normalized): 8,65
//
substance: ILSIDTL (listed as Homo sapiens) [peptide from SPEF2_HUMAN]
Binding intensity (normalized): 79,63
//
substance: LLTIETL (listed as Homo sapiens)
Binding intensity (normalized): 26,55
//
substance: IHAIITL (listed as Homo sapiens) [peptide from LRC40_HUMAN]
Binding intensity (normalized): 8,22

----------
Target: p53β (p53-aggregating sequence ILTIITL) (Homo sapiens, UniProt P04637)
Test: In vitro peptide-binding assay (PepSpot membrane, biotinylated p53β peptide, streptavidin-HRP)
Conditions: immobilized peptide, p53β self-interaction = 100,00
From the text: In order to identify aggregating peptides that match p53β, the human proteome for peptides that have high homology with the p53β peptide were screened. While p53β is unique to p53, in silico analysis identified 56 additional peptides (Table 2) that have no more than two mismatches with p53β. Subsequently, the ability of the selected peptides to interact with p53β using an in vitro peptide-binding assay was empirically determined. […]
endpoint: Binding intensity (normalized)

substance: ALTFITL (listed as Homo sapiens) [peptide from BN3D2_HUMAN]
endpoint: Binding intensity (normalized)
result: 6,47

substance: ILTNTTL (listed as Homo sapiens) [peptide from CC132_HUMAN]
endpoint: Binding intensity (normalized)
result: 76,96

substance: ILTIGTG (listed as Homo sapiens)
endpoint: Binding intensity (normalized)
result: 49,22

substance: CLTIITG (listed as Homo sapiens) [peptide from TRI18_HUMAN]
endpoint: Binding intensity (normalized)
result: 3,67

substance: IKSIITL (listed as Homo sapiens) [peptide from CT132_HUMAN]
endpoint: Binding intensity (normalized)
result: 4,39

substance: FLTIFTL (listed as Homo sapiens) [peptide from PRA10_HUMAN]
endpoint: Binding intensity (normalized)
result: 26,40

substance: IQTISTL (listed as Homo sapiens) [peptide from SCC4_HUMAN]
endpoint: Binding intensity (normalized)
result: 7,06

substance: IEVIITL (listed as Homo sapiens) [peptide from CXL11_HUMAN]
endpoint: Binding intensity (normalized)
result: 8,54

substance: ILIIVTL (listed as Homo sapiens) [peptide from P63_HUMAN]
endpoint: Binding intensity (normalized)
result: 92,04

substance: ILTSGTL (listed as Homo sapiens) [peptide from RTEL1_HUMAN]
endpoint: Binding intensity (normalized)
result: 17,31

substance: ITTGITL (listed as Homo sapiens) [peptide from CGRF1_HUMAN]
endpoint: Binding intensity (normalized)
result: 36,69

substance: ILTITTP (listed as Homo sapiens) [peptide from CBPC3_HUMAN]
endpoint: Binding intensity (normalized)
result: 19,59

substance: ITTVITL (listed as Homo sapiens) [peptide from CD041_HUMAN]
endpoint: Binding intensity (normalized)
result: 5,27

substance: ILTILCL (listed as Homo sapiens)
endpoint: Binding intensity (normalized)
result: 4,81

substance: RRPILTIITLEDGS (listed as Homo sapiens) [reference compound]
endpoint: Binding intensity (normalized)
result: 30,92

substance: ILKQITL (listed as Homo sapiens)
endpoint: Binding intensity (normalized)
result: 19,84

substance: ILGKITL (listed as Homo sapiens) [peptide from MP2K4_HUMAN]
endpoint: Binding intensity (normalized)
result: 16,85

substance: ILTISSL (listed as Homo sapiens) [peptide from KV122_HUMAN]
endpoint: Binding intensity (normalized)
result: 23,80

substance: ALVIITL (listed as Homo sapiens) [peptide from CCNI2_HUMAN]
endpoint: Binding intensity (normalized)
result: 43,37

----------
Biological target: p53β (p53-aggregating sequence ILTIITL) (Homo sapiens)
Test: In vitro peptide-binding assay (PepSpot membrane, biotinylated p53β peptide, streptavidin-HRP)
Settings: immobilized peptide, p53β self-interaction = 100,00
endpoint: Binding intensity (normalized)

substance: DLTIIDL (listed as Homo sapiens) [peptide from MX2_HUMAN]
measured.on: p53β (p53-aggregating sequence ILTIITL) (Homo sapiens)
result: 40,18

substance: ILTSQTL (listed as Homo sapiens)
measured.on: p53β (p53-aggregating sequence ILTIITL) (Homo sapiens)
result: 2,39

substance: ILTLIEL (listed as Homo sapiens) [peptide from SMG1_HUMAN]
measured.on: p53β (p53-aggregating sequence ILTIITL) (Homo sapiens)
result: 9,77

substance: ILDIITS (listed as Homo sapiens) [peptide from ANXA6_HUMAN]
measured.on: p53β (p53-aggregating sequence ILTIITL) (Homo sapiens)
result: 78,87

substance: ILTKYTL (listed as Homo sapiens) [peptide from NOL11_HUMAN]
measured.on: p53β (p53-aggregating sequence ILTIITL) (Homo sapiens)
result: 33,34

substance: ILIIITL (listed as Homo sapiens) [peptide from P73_HUMAN]
measured.on: p53β (p53-aggregating sequence ILTIITL) (Homo sapiens)
result: 98,99

substance: ILTKPTL (listed as Homo sapiens) [peptide from MYST3_HUMAN]
measured.on: p53β (p53-aggregating sequence ILTIITL) (Homo sapiens)
result: 16,14

substance: IKTIINL (listed as Homo sapiens) [peptide from PTPC1_HUMAN]
measured.on: p53β (p53-aggregating sequence ILTIITL) (Homo sapiens)
result: 9,72

substance: ILTIVSL (listed as Homo sapiens) [peptide from DHX33_HUMAN]
measured.on: p53β (p53-aggregating sequence ILTIITL) (Homo sapiens)
result: 10,20
